# Tested on: Rattus norvegicus
# ASSAY COMMENT: Toxicity in Sprague-Dawley rat assessed as increase in body weight at 10 mg/kg/day measured on day 16 (reference value: 195 +/- 16%)
# Assay type: organism-based
# ASSAY SETUP: in vivo
Reported Activity values for a set of compounds
// units = %; emit number, no label

Solved entries:
> print(dat)
               smiles.str      tested.system  recorded.metric  measured
1    CCCCCCCCCCC(=O)CCCCC  Rattus norvegicus         Activity       209
2    CCCCCCCCCC(=O)CCCCCC  Rattus norvegicus         Activity       207
3    CCCCCCCCCCCCCCC(C)=O  Rattus norvegicus         Activity       228
4    CCCCCCCCCCCC(=O)CCCC  Rattus norvegicus         Activity       206
5     CCCCCCCCCCCCCC(C)=O  Rattus norvegicus         Activity       233
6    CCCCCCCCCCCCC(=O)CCC  Rattus norvegicus         Activity       213
7    CCCCCCCCCCCCCC(=O)CC  Rattus norvegicus         Activity       212
8   CCCCCCCCCCCCCCCC(C)=O  Rattus norvegicus         Activity       229
9  CCCCCCCCCCCCCCCCC(C)=O  Rattus norvegicus         Activity       242

Now for a further compound.
Prompt: Provide Activity, recorded with Rattus norvegicus, of CCCCCCCCC(=O)CCCCCCC
Response: 209

---

# ASSAY COMMENT: Toxicity in CF1 mouse
# Type: organism-based
# ASSAY SETUP: in vivo
RECORDED METRIC: LD50 (mg/kg)
Unit mg/kg implied. Number only.

Prompt: Specify reported LD50 for the compound shown: CCCCCCCCCCCCCCC(C)=O
Response: 1750

---

As shown below, each of these compounds has a reported Activity value.
# Tested on: Rattus norvegicus
# ASSAY COMMENT: Toxicity in Sprague-Dawley rat assessed as increase in body weight at 10 mg/kg/day measured on day 10 (reference value: 160 +/- 13%)
# Assay type: organism-based
# ASSAY SETUP: in vivo
Respond numerically; units are % and should not be typed.

Solved entries:
> print(dat)
              smiles.str  recorded.metric  result.unit  measured
1   CCCCCCCCCC(=O)CCCCCC         Activity            %       169
2   CCCCCCCCCCCCC(=O)CCC         Activity            %       175
3   CCCCCCCCCCCCCC(=O)CC         Activity            %       167
4   CCCCCCCCCCCC(=O)CCCC         Activity            %       165
5  CCCCCCCCCCCCCCCC(C)=O         Activity            %       165

Prompt: Please give measured Activity of the following entry: CCCCCCCCCCCCCCCCC(C)=O
Response: 175

Prompt: Read the entry CCCCCCCCCCCCCC(C)=O and write its reported Activity.
Response: 156

Prompt: Query Activity for CCCCCCCCC(=O)CCCCCCC
Response: 167

Prompt: Please indicate Activity recorded for CCCCCCCCCCC(=O)CCCCC
Response: 168

Prompt: Quote Activity reported for CCCCCCCCCCCCCCC(C)=O please.
Response: 145
